Ref: paper PMC6682096

# tested_system: PTP1B (Homo sapiens)
# method: Enzyme kinetics of PTP1B inhibition
# Format: biochemical
# condition_notes: PTP1B inhibition Ki value (Kic), binding constant of the inhibitor with the free enzyme; secondary plots
readout_name: pKi
API: returns pKi as number; meaning -log10 of concentration in mol/L.

Exam item: Query pKi on PTP1B (Homo sapiens) for COc1cc(O)c2c(O)c3c(=O)cc(C)oc3cc2c1
Marked response: 5.16

---

# tested_system: PTP1B (Homo sapiens, UniProt P18031)
# Sequence (P18031 whole entry): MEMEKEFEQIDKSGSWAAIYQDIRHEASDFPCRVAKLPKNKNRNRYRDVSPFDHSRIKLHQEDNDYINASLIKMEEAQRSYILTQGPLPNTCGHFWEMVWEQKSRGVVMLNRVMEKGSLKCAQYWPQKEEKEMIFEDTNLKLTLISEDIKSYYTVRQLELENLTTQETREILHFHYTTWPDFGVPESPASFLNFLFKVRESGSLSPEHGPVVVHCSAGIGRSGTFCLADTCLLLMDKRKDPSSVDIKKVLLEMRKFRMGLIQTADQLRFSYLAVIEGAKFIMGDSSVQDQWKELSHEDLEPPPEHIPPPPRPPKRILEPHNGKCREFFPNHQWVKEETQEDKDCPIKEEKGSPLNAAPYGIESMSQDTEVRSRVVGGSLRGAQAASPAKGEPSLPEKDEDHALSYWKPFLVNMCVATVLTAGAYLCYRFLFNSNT
readout_name: IC50
Units required after the number.

Exam item: Requested read-out: IC50. Entry: COc1cc(O)c2c(O)c3c(=O)cc(C)oc3cc2c1
Marked response: 17 µM
